- Protocol text: Antagonist activity at CCR2 receptor in human monocytes assessed as inhibition of MCP1-mediated chemotaxis
Measured parameter: IC50 (nM)

compound=CC(C)[C@]1(C(=O)NCc2cc(C(F)(F)F)cc(C(F)(F)F)c2)CC[C@@H](N2CCC(c3cncnc3)CC2)C1 measured_parameter=IC50 reported=2
compound=CC(C)(O)[C@]1(C(=O)NCc2cc(C(F)(F)F)cc(C(F)(F)F)c2)CC[C@@H](N2CCC(c3cncnc3)CC2)C1 measured_parameter=IC50 reported=2
